Taken from patent US8481551B2.

Assay: Pharmacokinetics, monkey oral study
Format: in vivo, cynomolgus monkeys
Details: male, cynomolgus monkey, plasma, po, 30 mg/kg, monkey plasma; Compound W dosed PO 30 mg/kg in 0.5% MC; label = analyte; read-out: AUCextrap
From the text: Pharmacokinetic Data Analysis. Statistical Data Analysis. Plasma concentration vs. time data was subjected to noncompartmental pharmacokinetic (PK) analysis.
MEASUREMENT_NAME: AUC
Show the value, then the unit it is measured in.

What does the data say about its AUC? Entry: `CCNC(=O)Nc1nc2cc(-c3cnc(C(C)(C)O)nc3)c(F)c([C@H]3CCCO3)c2[nH]1`
24.8 µg·h/mL

* * *

Entries and their measured AUC follow.
test: Pharmacokinetics, rat IV study; conditions: male, Sprague Dawley, rat, plasma, iv, 5 mg/kg, AUCextrap, Compound W 5 mg/kg single IV bolus in D5W, male Sprague Dawley rats, analyte as labelled
Respond numerically; units are µg·h/mL and should not be typed.

What does the data say about its AUC? Entry: `CCNC(=O)Nc1nc2cc(-c3cnc(C(C)(C)OP(=O)([O-])[O-])nc3)c(F)c([C@H]3CCCO3)c2[nH]1.[Na+].[Na+]`
1.12

Cool, now `CCNC(=O)Nc1nc2cc(-c3cnc(C(C)(C)O)nc3)c(F)c([C@H]3CCCO3)c2[nH]1`
3.06

* * *

experiment: Pharmacokinetics, rat oral study; assay type: in vivo, Sprague Dawley rats; conditions: male, Sprague Dawley, in vivo, 300 mg/kg, rat plasma, Compound W dosed orally 300 mg/kg in 0.5% MC, label = analyte, read-out: Cmax/C0
MEASUREMENT_NAME: Cmax (ng/mL)
Respond numerically; units are ng/mL and should not be typed.

What does the data say about its Cmax? Entry: `CCNC(=O)Nc1nc2cc(-c3cnc(C(C)(C)O)nc3)c(F)c([C@H]3CCCO3)c2[nH]1`
11700

* * *

Test: Seven-day oral (gavage) toxicity and toxicokinetics study in rats
Assay type: in vivo, Crl:CD(SD) rats
Conditions: Crl:CD(SD), rat, in vivo; male rats, 300 mg/kg twice a day for 7 days, oral gavage
Experimental: Crl:CD(SD) rats were obtained from Charles River Laboratories of Stone Ridge, N.Y. The animals were laboratory bred and experimentally naïve. Rats were chosen because they are a species that is commonly used for nonclinical toxicity evaluations. Forty rats (20 noncannulated males and 20 males with jugular vein cannulas) were ordered. […] Their supplier-calculated birth date was retained in the study records. […] Prior to start of dosing, body weights were measured for randomization on Day 1. […]
MEASUREMENT_NAME: AUC (µg·h/mL)
Respond numerically; units are µg·h/mL and should not be typed.

What does the data say about its AUC? Entry: CCNC(=O)Nc1nc2cc(-c3cnc(C(C)(C)O)nc3)c(F)c([C@H]3CCCO3)c2[nH]1 [Compound 23A]
291

* * *

test: Pharmacokinetics, rat oral study; assay type: in vivo, Sprague Dawley rats; details: male, Sprague Dawley, plasma, 30 mg/kg, Compound W dosed orally 30 mg/kg in 0.5% MC, label = analyte
MEASUREMENT_NAME: Tmax (h)
Respond numerically; units are h and should not be typed.

What does the data say about its Tmax? Entry: `CCNC(=O)Nc1nc2cc(-c3cnc(C(C)(C)OP(=O)([O-])[O-])nc3)c(F)c([C@H]3CCCO3)c2[nH]1.[Na+].[Na+]`
3.3

* * *

test: Aqueous solubility study; format: physicochemical; settings: aqueous buffer, thermodynamic from solid; water, pH 4.39, crystalline solid form, 96 hours at room temperature
MEASUREMENT_NAME: solubility at 96 h
Show the value, then the unit it is measured in.

What does the data say about its solubility at 96 h? Entry: CCNC(=O)Nc1nc2cc(-c3cnc(C(C)(C)OP(=O)([O-])[O-])nc3)c(F)c([C@H]3CCCO3)c2[nH]1.[Na+].[Na+] [Compound W]
250 µg/mL

* * *

biological target: S. aureus DNA gyrase (Staphylococcus aureus, UniProt P0A0K8)
Sequence (P20831 whole entry): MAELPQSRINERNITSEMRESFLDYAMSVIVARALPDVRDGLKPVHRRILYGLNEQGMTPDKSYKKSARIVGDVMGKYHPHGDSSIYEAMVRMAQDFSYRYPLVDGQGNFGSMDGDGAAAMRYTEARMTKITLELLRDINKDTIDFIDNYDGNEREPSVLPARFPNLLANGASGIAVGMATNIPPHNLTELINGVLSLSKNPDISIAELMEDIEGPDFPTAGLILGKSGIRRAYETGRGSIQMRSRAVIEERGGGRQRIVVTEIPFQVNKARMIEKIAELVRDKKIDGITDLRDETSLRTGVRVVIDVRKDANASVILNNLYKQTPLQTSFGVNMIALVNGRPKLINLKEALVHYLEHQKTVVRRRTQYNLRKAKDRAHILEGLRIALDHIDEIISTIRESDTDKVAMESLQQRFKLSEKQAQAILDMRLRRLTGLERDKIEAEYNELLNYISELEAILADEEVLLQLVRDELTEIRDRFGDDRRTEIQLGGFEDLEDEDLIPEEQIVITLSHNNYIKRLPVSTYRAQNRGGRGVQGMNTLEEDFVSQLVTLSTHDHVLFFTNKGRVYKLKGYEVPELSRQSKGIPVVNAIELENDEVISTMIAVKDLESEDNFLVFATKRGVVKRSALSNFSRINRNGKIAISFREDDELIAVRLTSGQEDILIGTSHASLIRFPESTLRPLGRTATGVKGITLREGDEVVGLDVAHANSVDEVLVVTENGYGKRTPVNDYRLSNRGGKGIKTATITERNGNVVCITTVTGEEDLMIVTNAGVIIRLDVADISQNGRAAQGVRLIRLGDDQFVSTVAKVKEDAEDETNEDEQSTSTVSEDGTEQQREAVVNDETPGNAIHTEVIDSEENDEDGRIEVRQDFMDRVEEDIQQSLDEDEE
Sequence (P0A0K8 whole entry): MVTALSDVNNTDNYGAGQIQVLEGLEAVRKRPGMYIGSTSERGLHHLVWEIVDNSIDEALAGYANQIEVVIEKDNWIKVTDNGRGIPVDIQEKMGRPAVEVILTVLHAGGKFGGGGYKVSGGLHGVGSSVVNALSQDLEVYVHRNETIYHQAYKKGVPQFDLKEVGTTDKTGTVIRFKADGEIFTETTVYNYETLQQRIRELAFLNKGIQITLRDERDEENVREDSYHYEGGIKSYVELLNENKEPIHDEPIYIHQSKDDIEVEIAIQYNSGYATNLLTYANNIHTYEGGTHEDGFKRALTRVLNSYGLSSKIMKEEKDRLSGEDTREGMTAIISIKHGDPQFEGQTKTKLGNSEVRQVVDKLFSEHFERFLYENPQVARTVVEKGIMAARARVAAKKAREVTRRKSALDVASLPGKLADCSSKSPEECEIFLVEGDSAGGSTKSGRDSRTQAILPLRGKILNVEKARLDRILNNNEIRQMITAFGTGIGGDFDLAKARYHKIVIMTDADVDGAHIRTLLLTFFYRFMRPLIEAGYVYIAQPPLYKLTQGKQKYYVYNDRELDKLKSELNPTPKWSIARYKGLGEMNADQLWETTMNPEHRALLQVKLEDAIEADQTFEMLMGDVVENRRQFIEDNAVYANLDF
MEASUREMENT_NAME: IC50 (µM)
Respond numerically; units are µM and should not be typed.

What value of IC50 on S. aureus DNA gyrase (Staphylococcus aureus, UniProt P0A0K8) does CCNC(=O)Nc1nc2cc(-c3cnc(C(C)(C)OP(=O)([O-])[O-])nc3)c(F)c([C@H]3CCCO3)c2[nH]1.[Na+].[Na+] [Compound W, phosphate] have?
0.054

* * *

experiment: Seven-day oral (gavage) toxicity and toxicokinetics study in rats; assay type: in vivo, Crl:CD(SD) rats; settings: Crl:CD(SD), rat, in vivo, po, 300 mg/kg; male rats, twice a day for 7 days orally via gavage; read-out: NOAEL (No-Observable-Adverse-Effect-Level)
MEASUREMENT_NAME: NOAEL at 7 days (mg/kg)
Respond numerically; units are mg/kg and should not be typed.

What does the data say about its NOAEL at 7 days? Entry: CCNC(=O)Nc1nc2cc(-c3cnc(C(C)(C)O)nc3)c(F)c([C@H]3CCCO3)c2[nH]1 [Compound 23A]
300

* * *

assay: Pharmacokinetics, monkey IV study; details: male, cynomolgus monkey, plasma, 5 mg/kg, AUCextrap, Compound W dosed IV 5 mg/kg in D5W, label = analyte
Entries and their measured AUC follow.
Respond numerically; units are ng·h/mL and should not be typed.

- SMILES_INPUT: "CCNC(=O)Nc1nc2cc(-c3cnc(C(C)(C)O)nc3)c(F)c([C@H]3CCCO3)c2[nH]1"
  AUC (ng·h/mL): 3810

What does the data say about its AUC? Entry: `CCNC(=O)Nc1nc2cc(-c3cnc(C(C)(C)OP(=O)([O-])[O-])nc3)c(F)c([C@H]3CCCO3)c2[nH]1.[Na+].[Na+]`
5830

* * *

experiment: Pharmacokinetics, rat oral study; assay type: in vivo, Sprague Dawley rats; conditions: male, Sprague Dawley, plasma, 30 mg/kg, Compound W dosed orally 30 mg/kg in 0.5% MC, label = analyte, read-out: AUC
MEASUREMENT_NAME: AUC

What does the data say about its AUC? Entry: `CCNC(=O)Nc1nc2cc(-c3cnc(C(C)(C)OP(=O)([O-])[O-])nc3)c(F)c([C@H]3CCCO3)c2[nH]1.[Na+].[Na+]`
178 ng·h/mL

* * *

assay: Pharmacokinetics, rat oral study; format: in vivo, Sprague Dawley rats; conditions: male, Sprague Dawley, plasma, 100 mg/kg, Compound W dosed orally 100 mg/kg in 0.5% MC, label = analyte, read-out: Cmax/C0
MEASUREMENT_NAME: Cmax (ng/mL)
Respond numerically; units are ng/mL and should not be typed.

What does the data say about its Cmax? Entry: `CCNC(=O)Nc1nc2cc(-c3cnc(C(C)(C)OP(=O)([O-])[O-])nc3)c(F)c([C@H]3CCCO3)c2[nH]1.[Na+].[Na+]`
21

* * *

experiment: Pharmacokinetics, rat oral study; assay type: in vivo, Sprague Dawley rats; conditions: male, Sprague Dawley, in vivo, 3 mg/kg, rat plasma, Compound W dosed orally 3 mg/kg in 0.5% MC, label = analyte, read-out: AUC
MEASUREMENT_NAME: AUC (ng·h/mL)
Respond numerically; units are ng·h/mL and should not be typed.

What does the data say about its AUC? Entry: CCNC(=O)Nc1nc2cc(-c3cnc(C(C)(C)O)nc3)c(F)c([C@H]3CCCO3)c2[nH]1 [Compound 23]
311

* * *

assay: Pharmacokinetics, monkey IV study; settings: male, cynomolgus monkey, plasma, 5 mg/kg, AUC, Compound W dosed IV 5 mg/kg in D5W, label = analyte
MEASUREMENT_NAME: AUC (ng·h/mL)
Respond numerically; units are ng·h/mL and should not be typed.

What does the data say about its AUC? Entry: CCNC(=O)Nc1nc2cc(-c3cnc(C(C)(C)OP(=O)([O-])[O-])nc3)c(F)c([C@H]3CCCO3)c2[nH]1.[Na+].[Na+] [Compound W]
5790

* * *

assay: Pharmacokinetics, rat oral study; assay type: in vivo, Sprague Dawley rats; conditions: male, Sprague Dawley, in vivo, 100 mg/kg, rat plasma, Compound W dosed orally 100 mg/kg in 0.5% MC, label = analyte, read-out: Cmax/C0
MEASUREMENT_NAME: Cmax (ng/mL)
Respond numerically; units are ng/mL and should not be typed.

What does the data say about its Cmax? Entry: `CCNC(=O)Nc1nc2cc(-c3cnc(C(C)(C)O)nc3)c(F)c([C@H]3CCCO3)c2[nH]1`
6600

* * *

experiment: Pharmacokinetics, rat oral study; format: in vivo, Sprague Dawley rats; conditions: male, Sprague Dawley, in vivo, 30 mg/kg, rat plasma, Compound W dosed orally 30 mg/kg in 0.5% MC, label = analyte, read-out: AUC
MEASUREMENT_NAME: AUC (ng·h/mL)
Respond numerically; units are ng·h/mL and should not be typed.

What does the data say about its AUC? Entry: `CCNC(=O)Nc1nc2cc(-c3cnc(C(C)(C)O)nc3)c(F)c([C@H]3CCCO3)c2[nH]1`
22500

* * *

test: Pharmacokinetics, rat oral study; type: in vivo, Sprague Dawley rats; settings: male, Sprague Dawley, in vivo, 3 mg/kg, rat plasma, Compound W dosed orally 3 mg/kg in 0.5% MC, label = analyte, read-out: Cmax/C0
MEASUREMENT_NAME: Cmax (ng/mL)
Respond numerically; units are ng/mL and should not be typed.

What does the data say about its Cmax? Entry: `CCNC(=O)Nc1nc2cc(-c3cnc(C(C)(C)O)nc3)c(F)c([C@H]3CCCO3)c2[nH]1`
117
